System: OV90
ASSAY_DETAILS: Primary qHTS to identify gynecologic anti-cancer compounds using libraries of approved drugs and bioactive compounds (AID 1345084); further: on the % scale 0 is the no-effect control and ±100 the full control effect; nearly all actives have a fitted effect of over 55% in size
CONDITION: Gynecologic cancer cell panel viability, ATPlite luminescence, 48 h; series mostly up to 57.5 µM
Results filed as inconclusive are left out. The source made the active and inactive calls. The call rests on the fitted dose curve; in most records, active means well fitted cell-killing curve with a large enough effect; inconclusive means small, poorly fitted or top-dose-only effect, or effect the other way; inactive means flat fitted curve, though single readings scatter.
REPORTED_METRIC: activity change, negative = cytotoxicity

[[record]]
compound = "CC(C)Oc1ccc(-c2nc(-c3cccc4c3CCC4NCCC(=O)O)no2)cc1C#N (stereo unspecified)"
reported_metric = "activity change, negative = cytotoxicity"
result = "inactive"

[[record]]
compound = "COc1cc(O)c2c(c1Cl)CC(C)OC2=O (stereo unspecified)"
reported_metric = "activity change, negative = cytotoxicity"
result = "inactive"

[[record]]
compound = "O=C(O)c1cccc(C(=O)CCC2OC(n3cnc4c(=O)[nH]cnc43)C(O)C2O)c1 (stereo unspecified)"
reported_metric = "activity change, negative = cytotoxicity"
result = "inactive"

[[record]]
compound = "COc1cc(Nc2nc3c(s2)CCCC3c2ccccc2)ccc1-n1cnc(C)c1 (stereo unspecified)"
reported_metric = "activity change, negative = cytotoxicity"
result = "7.49% [at 11.6 µM] (inactive)"

[[record]]
compound = "O=C(Nc1cc(-c2ccccc2)nn1-c1ccccc1)c1ccc([N+](=O)[O-])cc1"
reported_metric = "activity change, negative = cytotoxicity"
result = "inactive"


For OV90, provide activity change, negative = cytotoxicity of "COC(=O)Cn1nc(-c2cccc(OC)c2)c2ccccc21" please.
inactive

For OV90, provide activity change, negative = cytotoxicity of "Cc1ccccc1-n1nc(-c2c(-c3ccc(F)cc3)nn3c2NC[C@@H](CO)C3)ccc1=O" please.
inactive

For OV90, provide activity change, negative = cytotoxicity of "Nc1ncnc2c1ncn2[C@H]1O[C@@H](C(=O)N2CCN(CC(=O)Nc3cccc4c3CNC4=O)CC2)[C@H](O)[C@@H]1O" please.
inactive

For OV90, provide activity change, negative = cytotoxicity of "C[C@@H](c1ccccc1)N(C(N)=NC#N)c1cccc2ncccc12" please.
inactive

For OV90, provide activity change, negative = cytotoxicity of "CC(C)N(CCCNC(=O)Nc1ccc(C(C)(C)C)cc1)C[C@H]1O[C@@H](n2ccc3c(N)ncnc32)[C@H](O)[C@@H]1O" please.
inactive

For OV90, provide activity change, negative = cytotoxicity of C[C@H]1[C@H](C)CC[C@]2(C(=O)OC3OC(CO)C(O)C(O)C3O)CC[C@]3(C(=O)O)C(=CCC4[C@@]5(C)CC[C@H](O[C@@H]6O[C@@H](C)[C@H](OC7OC(CO)C(O)C(O)C7O)[C@@H](O)[C@H]6O)C(C)(C)C5CC[C@]43C)[C@H]12 (stereo partly specified) please.
2.97% [at 11.6 µM] (inactive)

For OV90, provide activity change, negative = cytotoxicity of CC(C)(O)C1OC1C1=CC(=O)C2(C)OC2C1O (stereo unspecified) please.
inactive
